# tgt: T1, Peptide 8: Biotin-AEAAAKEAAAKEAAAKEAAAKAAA-Tyr-acid (N-terminal biotin; C-terminal acid)
# T1 construct: Control peptide without PC
# T1 peptide: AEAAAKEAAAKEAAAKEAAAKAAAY
# assay: scFv ELISA
# Procedure: For ELISA analysis of scFv binding, 96-well polystyrene plates were coated with Peptide 1, 4, 5, 8 or 100 μL BSA (10 μg/mL) in PBS at 4° C. overnight. […] All plates were washed three times with PBS-Tween before 40 μL aliquots of PPE were added to assay plates along with 50 μL 10% BSA, and plates were incubated for 1 hour at room temperature. […] The amount of scFv bound to each well was quantitated from absorbance measurement at 450 nm (OD450).
Property: OD450; scope: individual binders

{"binder": "PcOxP_DB04_F01 (scFv, V domains shown, scFv in periplasmic extract) VH: EVQLLESGGGLVQPGGSLRLSCAASGFTFSPFYMEWVRQAPGKGLEWVAASRNKANDYTTEYADSVKGRFTISRDNSKNTLYLQMNSLRAEDTAVYYCARDYYGSSYWYFDVWGQGTLVTVSS VL: DIVMTQSPDSLAVSLGERATINCTASESLYSSKHKVHYLAWYQQKPGQPPKLLIYGASNRYIGVPDRFSGSGSGTDFTLTISSLQAEDVAVYYCAQFYEYPLTFGGGTKVEIK", "OD450": "0.07 OD450"}
{"binder": "PcOxP_DB04_A11 (scFv, V domains shown, scFv in periplasmic extract) VH: EVQLLESGGGLVQPGGSLRLSCAASGFTFSDYYMEWVRQAPGKGLEWVAASRNKANTYTTEYADSVKGRFTISRDNSKNTLYLQMNSLRAEDTAVYYCARDYYGSSYWYFDVWGQGTLVTVSS VL: DIVMTQSPDSLAVSLGERATINCTASESVLSSKHKKNYLAWYQQKPGQPPKLLIYGASTRYIGVPDRFSGSGSGTDFTLTISSLQAEDVAVYYCAQFYSYPLTFGGGTKVEIK", "OD450": "0.08 OD450"}
